B1: TPR t1 (parent)
chain: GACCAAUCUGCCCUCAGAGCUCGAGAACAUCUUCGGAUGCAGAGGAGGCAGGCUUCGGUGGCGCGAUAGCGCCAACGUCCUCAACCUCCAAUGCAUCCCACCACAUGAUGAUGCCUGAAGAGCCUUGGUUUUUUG

variants of: B1; assay: polymerase ribozyme fitness, log enrichment relative to wild type (log ratio); higher = more active; in vitro selection for triplet polymerase activity
Readout Name: polymerase ribozyme fitness (log ratio)

Mutant: G19C A24G A26U C34U A43C G61U C123G
Value Measured: -7.57
--
Mutant: U14C C40G C49G
Value Measured: -3.41
--
Mutant: A27G A50G C72U U81A
Value Measured: -2
--
Mutant: C8U U21C U87G G122A
Value Measured: -0.0757
--
Mutant: C49G G69U C115U
Value Measured: 0.956
--
Mutant: A41U G69C
Value Measured: -4.05
--
Mutant: C72A C80U C114G
Value Measured: -3.31
--
Mutant: C11A G19C G57U
Value Measured: -5.03
--
Mutant: G58A A84U U133A
Value Measured: -0.154
--
Mutant: C8U U9G U59C C72U
Value Measured: 0.524
--
Mutant: C88U G93A
Value Measured: -0.936
--
Mutant: C28A A50C C82U C115A
Value Measured: -4.58
--
Mutant: C28U C62A C124G U133G
Value Measured: -2.2
--
Mutant: C13A C62G
Value Measured: -2.67
--
Mutant: A90G C101G C115G
Value Measured: -2.74
--
Mutant: C11G G71A
Value Measured: -0.503
--
Mutant: A37C G61U U109A
Value Measured: -5.9
--
Mutant: C22U A90G C101A C114A
Value Measured: -5.96
--
Mutant: G42U C73A C99U
Value Measured: -6.29
--
Mutant: G39U G113A U132A
Value Measured: -2.47
--
Mutant: C72U A95C
Value Measured: -0.818
--
Mutant: A5U U96A
Value Measured: -0.893
--
Mutant: C11U A16U G39C G42A C56U
Value Measured: -3.73
--
Mutant: G61A C98U
Value Measured: -0.37
--
Mutant: C11U A46G G69U
Value Measured: -0.0646
--
Mutant: C76U A90G A105U
Value Measured: -1.84
--
Mutant: G93U C115A
Value Measured: -2.49
--
Mutant: C49A C73A C88U A91U C124U
Value Measured: -0.744
--
Mutant: C34A G60A
Value Measured: -3.35
--
Mutant: U9A G71A C85A G93A C102A
Value Measured: -3.84
--
Mutant: C12A C13G G35A
Value Measured: -5.31
--
Mutant: U21A C94G
Value Measured: -1.64
--
Mutant: C13A C28G C49A A75U A103G G107U U112C
Value Measured: -6.59
--
Mutant: C11G G117C
Value Measured: -1.94
--
Mutant: C3U A37C C53G U55C
Value Measured: -1.11
--
Mutant: C8U U30C C49U C124G U133G
Value Measured: -3.25
--
Mutant: C12U C15U G45U G69C C82A C101U
Value Measured: -2.95
--
Mutant: G48A C70A G120U G128A G135A
Value Measured: -2.26
--
Mutant: G57C U81C
Value Measured: 0.391
--
Mutant: C40U G61U
Value Measured: -0.267
--
Mutant: A5G C13A A46U G63A U133A
Value Measured: -2.84
--
Mutant: C12U G35A G57C C88U
Value Measured: -4.97
--
Mutant: A5C G10A C86A
Value Measured: -0.155
--
Mutant: G69U U87C C104A
Value Measured: -0.553
--
Mutant: U38A U54G
Value Measured: -0.848
--
Mutant: G17U C20G G52A C73A G113A A119G
Value Measured: -1.98
